apparent KD of MS2 coat protein reference
- Tested on: MS2 coat protein
- testMethodNotes: apparent KD of MS2 coat protein; designed switch direction (-1 OFF switch, 1 ON switch): 1; higher = weaker reporter binding
- recordedConditions: Eterna round: R95; input ligand: FMN 200 uM
assayMetric: apparent KD of MS2 coat protein (nM)

INSERT INTO assay_data (sequencerecord, valueobserved) VALUES
  ('AUAAGUUCGAUGCUCGUCUCUCCGUACAAACAUGAGGAUCACCCAUGUGGUCGGGAAGUAGCCCGGCCAGUAUGACC [Arbesoce] (puzzle: Sensor for hsa-mir-208a)', 31.2),
  ('AAAUGUAGGAAACAACAGCAAGAGCAUGUACAUGAGGAUCACCCAUGUCAUGUACAAGCUUUUUGCUGGUCUUAUUA [ak 2 mod of one Eli''s designs..] (puzzle: Sensor for hsa-mir-208a)', 23.7),
  ('GGAGCCGGCACCGAGGAUAUUCAUAUUAAAACAUGAGGAUCACCCAUGUAGGUCGAAAGACCUUGGGAGAAGGCGGAUCGGCUCG [Xeonanis - 30] (puzzle: Same State 2)', 38.3),
  ('CUCAAACAUGAGGAUCACCCAUGUUUUUUCAUGGGAGGAUAUCUAAGUUCAUUAUAUUCAGGAGAAGGCCUAUGUC [× ×•×ª×• ×ž×“×™× ×” × ×—×ª-07] (puzzle: Same State 1)', 159),
  ('CUAUCUACAGGUUUCAGUGCUCGUCUUAUACAUGAGGAUCACCCAUGUUAUAGCCCGGUGCUUGCGCUGGGCUGAUU [JL ViennaUCT Tearor mod 3] (puzzle: Sensor for hsa-mir-208a)', 31.4);
